test system: Cavia porcellus; assay: Bronchodilator activity in guinea pig assessed as protection against histamine aerosol-induced bronchoconstriction at 100 mg/kg, ip treated for 15 mins prior to histamine aerosol-challenge measured after 5 mins relative to control; assay type: functional; settings: route intraperitoneal
ATTRIBUTE MEASURED: Activity (%)

- SMILES DATA: "O=C(O)c1ccc2ccc3ccc(Cl)cc3c(=O)c2c1"
  ASSAY TARGET: "Cavia porcellus"
  UNIT: "%"
  OBS VALUE: 0
- SMILES DATA: "O=C(O)c1ccc2c(=O)c3cccc(F)c3ccc2c1"
  ASSAY TARGET: "Cavia porcellus"
  UNIT: "%"
  OBS VALUE: 25
- SMILES DATA: "CC(C)c1ccc2c(c1)C(=O)c1ccc(C(=O)O)cc1CC2"
  ASSAY TARGET: "Cavia porcellus"
  UNIT: "%"
  OBS VALUE: 62.5
- SMILES DATA: "O=C(O)c1ccc2c(c1)CCc1c(F)cccc1C2=O"
  ASSAY TARGET: "Cavia porcellus"
  UNIT: "%"
  OBS VALUE: 75
- SMILES DATA: "Cc1cc(C)c2c(c1)C(=O)c1cc(C(=O)O)ccc1CC2"
  ASSAY TARGET: "Cavia porcellus"
  UNIT: "%"
  OBS VALUE: 37.5
- SMILES DATA: "Cc1ccc2c(c1)CCc1cc(C(=O)O)ccc1C2=O"
  ASSAY TARGET: "Cavia porcellus"
  UNIT: "%"
  OBS VALUE: 12.5
- SMILES DATA: "CC(C)Oc1ccc2c(c1)C(=O)c1ccc(C(=O)O)cc1CC2"
  ASSAY TARGET: "Cavia porcellus"
  UNIT: "%"
  OBS VALUE: 50
- SMILES DATA: "O=C(O)c1ccc2c(c1)CCc1cc(Br)ccc1C2=O"
  ASSAY TARGET: "Cavia porcellus"
  UNIT: "%"
  OBS VALUE: 25
- SMILES DATA: "O=C(O)c1ccc2c(c1)C(=O)c1cccc(Br)c1CC2"
  ASSAY TARGET: "Cavia porcellus"
  UNIT: "%"
  OBS VALUE: 0
- SMILES DATA: "CC(=O)c1ccc2ccc3ccc(C(=O)O)cc3c(=O)c2c1"
  ASSAY TARGET: "Cavia porcellus"
  UNIT: "%"
  OBS VALUE: 37.5
- SMILES DATA: "N#Cc1ccc2c(c1)C(=O)c1cc(C(=O)O)ccc1CC2"
  ASSAY TARGET: "Cavia porcellus"
  UNIT: "%"
  OBS VALUE: 0
- SMILES DATA: "CC(C)Oc1ccc2ccc3ccc(C(=O)O)cc3c(=O)c2c1"
  ASSAY TARGET: "Cavia porcellus"
  UNIT: "%"
  OBS VALUE: 62.5
- SMILES DATA: "O=C(O)c1cccc2c(=O)c3ccccc3ccc12"
  ASSAY TARGET: "Cavia porcellus"
  UNIT: "%"
  OBS VALUE: 12.5

Reference source for all entries: ChEMBL document CHEMBL3272266
